Value source: PubChem BioAssay

- protocol.summary: modulators of MEP2-GFP levels in yeast, confirmation, S. cerevisiae, flow cytometry GFP, second cherry picks (AID 2622);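 also: median channel GFP fluorescence of all gated yeast cells per well; ratio of median GFP to plate DMSO average so 100% = DMSO level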
- condition.notes: S. cerevisiae MEP2-GFP strain, 3 h, at 10 µM, stronger effect = higher value
This is one part of the list.
assay.readout: GFP response vs DMSO (%)
Numbers only, in %.

Before answering, review these 6 worked examples.
Cc1ccc2nc(N(CCN(C)C)C(=O)C3=COCCO3)sc2c1    105
Clc1cccc(CN2COc3c(cc(Cl)c4cccnc34)C2)c1    130
COc1ccc(CCNC(=O)CS(=O)(=O)Cc2nc(-c3ccc(C)cc3)oc2C)cc1OC    99.6
CCCCNc1c(-c2cccc(Sc3ccc(OC)cc3)c2)nc2ccccn12    129
COc1ccc(C)cc1NC(=O)CSc1nc(SC)ns1    97.8
O=C(NC(=S)NC1CCS(=O)(=O)C1)c1cccc([N+](=O)[O-])c1 (configuration not stated)    105

[Q] Quickly give me recorded GFP response vs DMSO for `CCOC(=O)c1cnc(SCC(=O)NCc2ccco2)nc1N`
[A] 97.8

---

- protocol.summary: LAP4-GFP expression modulators in yeast, confirmation, cell-based, cherry picks, flow cytometry, mother/daughter gates (AID 2271);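 also: ratio of sample to DMSO plate mean so 100% equals DMSO level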
- condition.notes: S. cerevisiae LAP4-GFP strain, 3 h, measured here: daughter cell gate response, at 10 µM, stronger effect = higher value, 100 means same as DMSO control
I'd be grateful if you could share measured GFP response relative to DMSO for these entries.
One number for each entry, in %.

Would you please look over these solved cases?
O=[N+]([O-])c1cc(Cl)c2cccnc2c1O    141
C=CCOc1ccc(C(=O)/C=C2/C(=O)Nc3ccccc32)cc1    108
CCS(=O)(=O)N1N=C(c2ccc(NS(C)(=O)=O)cc2)CC1c1ccccc1 (stereo unspecified)    104
Cc1cc(=O)[nH]c(-n2nc(C)cc2C)n1    101
O=C(COc1ccccc1)NNC(=S)NC(=O)c1ccccc1    165

Dear colleague, could you send me GFP response relative to DMSO for each of the items below? Thanks.
1. O=C(COc1ccccc1[N+](=O)[O-])Nc1ccc(NC(=O)c2cc3ccccc3o2)cc1
2. COc1ccc(-c2cc(C(F)(F)F)nc(S(C)(=O)=O)n2)cc1
3. CC1(C(=O)OCc2cc(=O)n3cc(Br)ccc3n2)CC1(Cl)Cl (stereo unspecified)

[A]
1. 92
2. 134
3. 123

Would you mind listing GFP response relative to DMSO for each of the following compounds?
1. Cc1ccsc1C(=O)N(Cc1nnc(-c2ccccc2Cl)o1)C1CC1
2. Cc1ccc(NC(=O)c2ccc([N+](=O)[O-])o2)cc1C
3. COC(=O)c1ccccc1Sc1ncnc2onc(C)c12

[A]
1: 96; 2: 111; 3: 106

---

Please go through the items and note down their GFP response, % of DMSO.
- protocol.summary: AGP1-GFP expression modulators, hit retest, confirmation, cell-based, flow cytometry, S. cerevisiae, cherry picks (AID 2273);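 also: median GFP channel fluorescence over the whole cell population gate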
- condition.notes: S. cerevisiae AGP1-GFP strain, 3 h, at 10 µM
Give bare numbers, in %.

C/C(=N\NC(=O)c1ccc(Br)cc1)c1ccccc1    94.3
O=C(Nc1ccccc1)c1ccccc1O    97.3
COCCCNC(=O)c1ccc2c3c(onc13)-c1ccccc1C2=O    83.6
O=C(Nc1ccccc1N1CCOCC1)c1ccc([N+](=O)[O-])o1    87.6
Cc1c(O)nc(SC2CC(=O)N(c3ccccc3)C2=O)[nH]c1=O (configuration not stated)    97.1
O=C(OCn1ncc(Br)c(Br)c1=O)c1ccc(F)cc1    106

State recorded GFP response, % of DMSO for all listed compounds.
1. CCn1c(=O)c(C(=O)NCCc2ccccc2)c(O)c2ccccc21
2. O=C(OCC(=O)N1CCN(C(=O)c2ccco2)CC1)c1cc(-c2cccc(Br)c2)nc2ccccc12
3. O=C1C2C3C=CC(CNS(=O)(=O)c4ccccc4)(O3)C2C(=O)N1c1ccc(Cl)cc1 (configuration not stated)
4. COc1cc(/C=C/c2ccc3c(Br)cc(Br)c(O)c3n2)ccc1O
5. Nc1ccc(-c2c3ccc(=O)cc-3oc3cc(O)ccc23)cc1C(=O)O

[A]
1. 108
2. 127
3. 99.7
4. 98.6
5. 107

List reported GFP response, % of DMSO for each of these compounds:
1. COc1ccc(OC)c(NC(=O)c2cccc3c2C(=O)N(C2CCCCC2)C3)c1
2. COc1ccc(NC(=S)NCCCCCC(=O)C[N+](=O)[O-])cc1

[A]
1: 97.8; 2: 98.7
